Test: Solubility of the diphosphate salt in a range of dissolution media
Format: physicochemical
Conditions: organic solvent or mixture, thermodynamic from solid; PEG300; 37° C., minimum of 21 hours
MEASURED_ATTRIBUTE: solubility (µg/mL)
The answer is to be given in µg/mL; state only the numeric part.

**Q:** May I ask what solubility has been recorded for `CCOc1cc(-c2nncn2C)ccc1Nc1ncc2cc(C)nc(NCC(C)(C)C)c2n1` ?
**A:** 4170

---

Assay: Solubility of the diphosphate salt in a range of dissolution media
Assay type: physicochemical
Conditions: thermodynamic from solid; FaSSIF, pH 6.5; 37° C., minimum of 21 hours
MEASURED_ATTRIBUTE: solubility (mg/mL)
Your answer is read as mg/mL, so omit the unit and give the number.

**Q:** Reported solubility for `CCOc1cc(-c2nncn2C)ccc1Nc1ncc2cc(C)nc(NCC(C)(C)C)c2n1` : what is it?
**A:** 29.7

meta.source: patent US11945814B2
